target or test system: T1, human big-endothelin-1 (big-ET-1) (human)
T1 construct: 38 amino acid peptide; also called human big-ET-1; hBig-ET-1
T1 peptide: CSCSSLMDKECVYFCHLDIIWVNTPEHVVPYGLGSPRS
assay procedure: SPR (Biacore T200), 37 C, mAb capture, peptide analyte
measured quantity: T½ (min)
Just the number please, in min, no unit attached.

A selection of reference data follows.
H4H6329P (antibody, V domains shown, Human IgG4 Fc (prefix H4H)) VH: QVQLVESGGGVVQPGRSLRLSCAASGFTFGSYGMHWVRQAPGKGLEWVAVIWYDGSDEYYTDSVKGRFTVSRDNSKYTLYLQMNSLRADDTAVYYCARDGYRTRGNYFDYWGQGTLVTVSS VL: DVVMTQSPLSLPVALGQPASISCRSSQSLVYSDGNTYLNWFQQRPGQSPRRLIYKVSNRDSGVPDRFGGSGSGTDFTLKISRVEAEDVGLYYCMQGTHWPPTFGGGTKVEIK | 65
H4H6353P (antibody, V domains shown, Human IgG4 Fc (prefix H4H)) VH: EVQLVESGGGLVKPGGSLRLSCAASGFSFNYAWMSWVRQAPGKGLEWIGRIKSKINGGTTDYTAPVKGRFTISRDDSKNTLYLQMNSLKTEDTAVYYCRGDEDFWGQGTLVTVSS VL: DVVMTQSPLSLPVTLGQPASISCRSSQSLVYSDGFTYLNWFRQRPGQSPRRLIYKVSNRDSGVPDRFSGSGSGTDFTLRISRVEAEDVGIYYCMQGTHWPYTFGQGTKLEIK | 10
H4H6317P (antibody, V domains shown, Human IgG4 Fc (prefix H4H)) VH: QVQLVESGGGVVQPGRSLRLSCAASGFTFSSYGMHWVRQAPGKGLEWVAVLWYDGRNKYYADSVKGRFTISRDNSKNTLYLQMNSLRAEDTAVYYCARSYDAFDIWGQGTMVTVSS VL: DIQMTQSPSTLSASVGDRVTITCRASQSISSWLAWFQQGPGRAPKLLIYKASTLQSGVPSRFSGSGSGTEFTLTISSLQPDDFATYYCQQYRSYSPTFGQGTKVEIK | 58

QUERY: // lookup T½ for H4H6345P (antibody, V domains shown, Human IgG4 Fc (prefix H4H)) VH: EVQLVESGGGLVQPGGSLRLSCAASGFIFSSYAMTWVRQAPGKGLEWVSAISGSGVSTYYADSVKGRFTISRDNSKNTLYLQMNSLRIEDTAVYYCGKARTGTHAFDIWGQGTMVTVSS VL: DIQMTQSPSTLSASVGDRVTITCRASQSISRWLAWYQQKPGKAPKLLIYKASSLETGVPSRFSGSGSGTEFTLTISSLQPDDFGTYYCQQYNSYSSFGPGTKVDIK
RESULT: 0.2
